Provide the reported %Inh of each item.
Test system: TBK1;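 note: KINOMEscan kinase panel screen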
Conditions: concentration: 1 μM, replicates: in singlicate; n = 1
Please format your answer as a value with the unit trailing.

Item under review: `c1ccc(Oc2ccc(Nc3ccnc4cc(-c5ccc(CNCCN6CCOCC6)o5)ccc34)cc2)nc1` . Reported %Inh?
1%

Item under review: `COc1ccc(CNC(=O)NC2CCN(c3ccnc(Nc4ccc(F)cc4)n3)CC2)cc1` . Reported %Inh?
2%

Item under review: `C[C@@H]1CC[C@@H](C(=O)Nc2ccccc2)CN1c1cc(-c2ccc3c(N)n[nH]c3c2)nc(N)n1` . Reported %Inh?
17%

Item under review: `O=C(Nc1ccccc1F)NC1CCN(c2ccnc(Nc3ccc(F)cc3)n2)CC1` . Reported %Inh?
8%
